Data credit: ChEMBL document CHEMBL1201862

Tested on: CCRF-CEM
Test: NCI tumour cell line growth inhibition, 48 h
Active and inactive are the calls of the source. No stated cut-off is given here; in the data, active = GI50 up to about 1.1 µM and inactive = higher.
Answer with one of the outcomes true (1) for active, false (0) for inactive

C[C@]12C(=O)C=CCC1=CC[C@@H]1[C@@H]2[C@H]2CC3(O)C(=O)O[C@@]4(C)[C@H]5C[C@@]6(C)[C@@H]7[C@@]2(O)[C@]1(OC[C@H]6C(=O)O5)O[C@]734 (some centres undefined) : false (0)

Query: recorded result category for C=C1C(=O)OC2C1C(OC(=O)/C(C)=C\C)CC1(CO1)C1C(O)C=C(C)C21O (centres undefined) in this test false (0)

* * *

Tested on: SF-295
Experiment: NCI tumour cell line growth inhibition, 48 h
Active and inactive are the calls of the source. Cut-off read from the data, not from the text of the source: active = GI50 up to about 1.1 µM and inactive = higher.
Answer with one of the outcomes active, inactive

The examples below pair each entry with its known result.
COc1cc(OCCN(C)C)c2[nH]c(C(=O)N3CC(CCl)c4c3cc(N)c3ccccc43)cc2c1 (stereo not given) : active
O=C(O)C1CCCCC1c1c2ccc(=O)cc-2oc2cc(O)ccc12 (stereo not given) : inactive
CC1=CCC[C@@H]2[C@@](C)(Cc3cc(O)ccc3O)[C@H](C)CC[C@@]12C : inactive
CCOP(=O)(C/C(=N/NC(C)(C)C)C(=O)Nc1nc2ccc(C)cc2s1)OCC : inactive
Cc1ccc(-c2n[nH]c(CC#N)n2)cc1 : inactive

API: the following record is the query input.
Query: recorded result category for "C=CCn1c(=O)c(-c2ccccc2)c(O)c2ccccc21" in this test inactive
